This collection of values is drawn from patent US20220024981A1.

tgt: T1, Human PCSK9 Alexa Fluor 647 (human, UniProt Q8NBP7 31-692, limits assumed, Alexa Fluor 647 label (site not stated))
T1 construct: Labelled tracer of the TR-FRET assay, 16 nM stock; also called proprotein convertase subtilisin/kexin type 9
testSummary: TR-FRET competition: PCSK9-Alexa Fluor 647 vs LDLR ECD-Eu kryptate
Description: A Proxi plate-low volume assay plate was used for the assay. […] Following a 30 minute incubation, 5 uL of 4 nM Human LDLR extracellular domain-Europium Kryptate was added and the mixture was incubated for an additional 2 hours. The TR-FRET signal was measured on an EnVision or PheraStar instrument with a 60 μs delay, 330 nm excitation and 665 nm emission (FRET), and 330 nm excitation and 615 nm (Europium). The FRET ratio (FRET/Europium) was used for calculations.
Bridge positions count the residues as written; N and C are the ends. Square brackets hold non-standard residues; d marks the D form. Bip = N[C@@H](Cc1ccc(-c2ccccc2)cc1)C(=O)O; NMeA = CN[C@@H](C)C(=O)O
measurementName: pIC50
// field semantics: pIC50 = negative decimal log of concentration (mol/L)

Need pIC50, item {CH2CO}-FVATTF[NMeA][Bip][NMeA]KAPCG-NH2 (thioether N-13; SMILES CC(C)[C@@H]1NC(=O)[C@H](Cc2ccccc2)NC(=O)CSC[C@@H](C(=O)NCC(N)=O)NC(=O)[C@@H]2CCCN2C(=O)[C@H](C)NC(=O)[C@H](CCCCN)NC(=O)[C@H](C)N(C)C(=O)[C@H](Cc2ccc(-c3ccccc3)cc2)NC(=O)[C@H](C)N(C)C(=O)[C@H](Cc2ccccc2)NC(=O)[C@H]([C@@H](C)O)NC(=O)[C@H]([C@@H](C)O)NC(=O)[C@H](C)NC1=O, also called 1-22; Ex. No. 1-22) [Ac*-F-V-A-T-T-F-(N-Me)A-B-(N-Me)A-K-A-P-C*-G-NH2]
7.92
